ASSAY SYSTEM: UniProt P00740
ATTRIBUTE MEASURED: Ki (nM)

Reference set, count: 3
{"COMPOUND": "N=C(N)c1ccc2[nH]cc(C(CC3CC3)C(=O)Nc3ccc(-n4cnc5ccccc54)cc3)c2c1 (stereo not given)", "ASSAY SYSTEM": "UniProt P00740", "Ki [nM]": 3800}
{"COMPOUND": "N=C(N)c1ccc2[nH]cc(C(Cc3cccc(C(=O)O)c3)C(=O)Nc3ccc(-n4cnc5ccccc54)cc3F)c2c1 (stereo not given)", "ASSAY SYSTEM": "UniProt P00740", "Ki [nM]": 59}
{"COMPOUND": "CC(C(=O)Nc1ccc(-n2cnc3ccccc32)cc1)c1c[nH]c2ccc(C(=N)N)cc12 (stereo not given)", "ASSAY SYSTEM": "UniProt P00740", "Ki [nM]": 480}

A. N=C(N)c1ccc2[nH]cc(C(Cc3cccnc3)C(=O)Nc3ccc(-n4cnc5ccccc54)cc3)c2c1 (stereo not given)
B. N=C(N)c1ccc2[nH]cc(C(Cc3ccc(N)cc3)C(=O)Nc3ccc(-n4cnc5ccccc54)cc3)c2c1 (stereo not given)
Challenge: Parameter check: reported Ki is higher for which label, A or B ? Give the chosen item's label as your response.
Response given: A
(A: 1200 nM, B: 75 nM)

a. CCC(C(=O)Nc1ccc(-n2cnc3ccccc32)cc1)c1c[nH]c2ccc(C(=N)N)cc12 (stereo not given)
b. N=C(N)c1ccc2[nH]cc(C(Cc3ccccc3)C(=O)NCc3ccc(C(=O)Nc4nc5ccccc5[nH]4)cc3)c2c1 (stereo not given)
Challenge: Name the one with the greater Ki value, either a or b as given. State your choice using its label.
Response given: b

====

// endpoint Ki / system Coagulation factor X (Homo sapiens, UniProt P00742)
ATTRIBUTE MEASURED: Ki (nM)

{"COMPOUND": "N=C(N)c1ccc2ccn(C(Cc3ccccc3)C(=O)Nc3ccc(-n4cnc5ccccc54)cc3F)c2c1 (centres undefined)", "Ki / nM": 5.6}
{"COMPOUND": "N=C(N)c1ccc2[nH]cc([C@H](Cc3ccccc3)C(=O)Nc3ccc(-n4cnc5ccccc54)cc3F)c2c1", "Ki / nM": 26}
{"COMPOUND": "N=C(N)c1ccc2[nH]cc(C(CCc3ccccc3)C(=O)Nc3ccc(-n4cnc5ccccc54)cc3F)c2c1 (centres undefined)", "Ki / nM": 6.1}
{"COMPOUND": "CS(=O)(=O)c1ccc2nc(NC(=O)c3ccc(CNC(=O)C(Cc4ccccc4)c4c[nH]c5ccc(C(=N)N)cc45)cc3)[nH]c2c1 (centres undefined)", "Ki / nM": 1100}

A. N=C(N)c1ccc2[nH]cc(C(Cc3cccc(C(=O)O)c3)C(=O)Nc3ccc(-n4cnc5ccccc54)cc3F)c2c1 (centres undefined)
B. N=C(N)c1ccc2[nH]cc(C(Cc3ccccc3)C(=O)Nc3ccc(-c4ccccc4S(N)(=O)=O)cc3)c2c1 (centres undefined)
C. CCC(C(=O)Nc1ccc(-n2cnc3ccccc32)cc1)c1c[nH]c2ccc(C(=N)N)cc12 (centres undefined)
D. N=C(N)c1ccc2[nH]cc(C(Cc3cccnc3)C(=O)Nc3ccc(-n4cnc5ccccc54)cc3)c2c1 (centres undefined)
Challenge: Output the entries ranked by Ki from maximum down to minimum. Answer with the labels in sequence, matching the requested order.
Response given: D, C, A, B

====

ASSAY SYSTEM: UniProt:P00742
MEASUREMENT DESCRIPTION: Binding affinity towards human factor Xa
pKi: −log10 of the molar value.
ATTRIBUTE MEASURED: pKi

Sample records with pKi:
{"COMPOUND": "N=C(N)c1ccc2[nH]cc(C(Cc3ccccc3)C(=O)NCc3ccc(C(=O)Nc4nc5ccccc5[nH]4)cc3)c2c1 (centres undefined)", "pKi": 6.09}
{"COMPOUND": "N=C(N)c1ccc2[nH]cc(C(CC(=O)Nc3ccc(-n4cnc5ccccc54)cc3)Cc3ccccc3)c2c1 (centres undefined)", "pKi": 7.44}

1. Cn1cc(C(Cc2ccccc2)C(=O)Nc2ccc(-n3cnc4ccccc43)cc2F)c2cc(C(=N)N)ccc21 (centres undefined)
2. N=C(N)c1ccc2[nH]cc(C(Cc3ccc(N)cc3)C(=O)Nc3ccc(-n4cnc5ccccc54)cc3)c2c1 (centres undefined)
Challenge: Choose between 1 and 2 : whose measured pKi value is numerically larger? Mark your answer with the label of the selected entry.
Response given: 2

====

ASSAY SYSTEM: Coagulation factor IX (Homo sapiens)
Sequence (P00740 47-191 limits assumed): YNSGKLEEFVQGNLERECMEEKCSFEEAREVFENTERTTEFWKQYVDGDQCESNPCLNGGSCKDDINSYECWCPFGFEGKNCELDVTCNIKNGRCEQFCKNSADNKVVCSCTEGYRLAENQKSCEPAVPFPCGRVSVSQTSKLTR
Sequence (P00740 227-461 limits assumed): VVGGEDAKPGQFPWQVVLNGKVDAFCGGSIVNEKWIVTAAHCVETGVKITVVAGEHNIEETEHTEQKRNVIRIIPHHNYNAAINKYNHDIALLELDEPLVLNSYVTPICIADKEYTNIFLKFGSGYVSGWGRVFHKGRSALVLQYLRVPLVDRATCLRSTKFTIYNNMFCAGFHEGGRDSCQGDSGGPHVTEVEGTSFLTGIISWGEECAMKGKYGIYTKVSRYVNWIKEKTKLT
MEASUREMENT DESCRIPTION: Binding affinity towards human factor IXa
pKi: −log10 of the molar value.
ATTRIBUTE MEASURED: pKi

a. N=C(N)c1ccc2[nH]cc(C(CCc3ccccc3)C(=O)Nc3ccc(-n4cnc5ccccc54)cc3F)c2c1 (stereo not drawn)
b. N=C(N)c1ccc2[nH]cc(C(Cc3ccc4ccccc4c3)C(=O)Nc3ccc(-n4cnc5ccccc54)cc3F)c2c1 (stereo not drawn)
Challenge: Sorting by pKi in descending order, would a or b appear first? Reply with the label of the item you choose.
Response given: b
